Assignment: determine reported GI50 for the given compounds.
# Test system: MDA-MB-435
# protocolSummary: Cytotoxicity against human MDA-MB-435 cells by SRB assay
# Type: functional
One number for each entry, in nM.

* COc1cc(/C=C(\C#N)c2cc(OC)c(OC)c(OC)c2)cc(OC)c1 | 1630
* COc1ccc(/C=C/c2cc(OC)cc(OC)c2/C=C(\C#N)c2ccccc2OC)cc1 | 280
* COc1ccc(/C=C(\C#N)c2cc(OC)cc(OC)c2)cc1 | 170

Proceed to the following item.
Ask: Name the recorded GI50 for "COc1ccc(/C=C/c2cc(OC)cc(OC)c2/C=C(\C#N)c2ccc(OC)cc2)cc1" .
Reply: 240
